# inhibition listing for each entry below
- Tested System: Solute carrier family 2, facilitated glucose transporter member 1 (Homo sapiens) (UniProt P11166)
- Sequence (P11166 whole entry): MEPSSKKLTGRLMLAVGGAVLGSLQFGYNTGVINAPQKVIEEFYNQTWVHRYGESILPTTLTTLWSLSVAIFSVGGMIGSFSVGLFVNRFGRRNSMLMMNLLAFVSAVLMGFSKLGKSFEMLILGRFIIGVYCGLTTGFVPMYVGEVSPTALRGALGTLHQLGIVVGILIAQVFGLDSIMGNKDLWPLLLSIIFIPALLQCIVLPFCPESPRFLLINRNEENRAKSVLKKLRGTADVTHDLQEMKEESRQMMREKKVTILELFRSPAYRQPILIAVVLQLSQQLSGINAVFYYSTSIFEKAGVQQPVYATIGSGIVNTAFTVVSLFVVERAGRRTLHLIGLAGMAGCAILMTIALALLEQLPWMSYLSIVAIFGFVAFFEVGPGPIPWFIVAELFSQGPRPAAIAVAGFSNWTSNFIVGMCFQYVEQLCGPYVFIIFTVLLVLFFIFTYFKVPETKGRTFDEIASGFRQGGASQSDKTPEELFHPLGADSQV
- Assay Name: ST_JUDE_LEISH: Cytotoxicity at 2uM final concentration against transgenic Leishmania Mexicana promastigotes LmGLUT1 that are glucose transport deficient and complemented with the human glucose transporter GLUT1. Activity is measured by DNA content using SYBR green in vitro
- Assay type: functional
Test Readout: inhibition (%)

- COc1ccc2ncc(F)c([C@H](O)CN3CCC(NCc4ccc5c(c4)NC(=O)CS5)CC3)c2c1: -1.54
- CC(C)(C(=O)Nc1ccc(C2CCC(NCC3CC3)CC2)c(Cl)c1)c1cccc(OC(F)F)c1 (centres undefined): 9.94
- COc1cc(NC(=O)CCCCCCCN2CCN(C)CC2)c2ncccc2c1: 5.39
- Cc1nc(N)nc(N)c1CCCOc1ccccc1Cl: 13.2
- Cc1ccc(C(C#N)c2ccc3c(C(F)(F)F)cc(C(F)(F)F)nc3n2)cc1 (centres undefined): 1.88
- CCN(CC)/C(=N/C(=N)NCc1ccc(Cl)cc1Cl)NCCCCCCN/C(=N\C(=N)NCc1ccc(Cl)cc1Cl)N(CC)CC: 1.61
- CC(C)C[C@H](NC(=O)OC(C)(C)C)C(=O)Nc1ccc(Cc2ccc(NC(=O)[C@H](CC(C)C)NC(=O)OC(C)(C)C)cc2)cc1: 3.16
- Cc1cccc2nc(O)c([N+](=O)[O-])c(O)c12: 2.09
- CC(=O)c1ccc(NC(=O)Nc2ccc(N(C)c3ccnc(Nc4cccc(CS(C)(=O)=O)c4)n3)cc2)cc1: -0.18
- Cc1cccc2nc(-c3cccc(-c4ccc(NC(=O)c5cnn6cccnc56)cc4)c3)[nH]c12: 11.4
- CC(CN(C)C)C(=O)Nc1cccc(-c2cccc(-c3nc4cc(F)ccc4[nH]3)c2)c1 (centres undefined): -2.1
- Cc1cnc(-c2ccc(NC(=O)c3coc4ccc(N5CC(C)N(C)C(C)C5)cc34)cc2)o1 (centres undefined): -0.6
- C=CCn1c(=N)c(C(=O)NCc2ccc(F)cc2)cc2c(=O)n3cccc(C)c3nc21: 3.56
- O=C(C1CC1c1ccccc1)N(Cc1ccc(-c2ccc(CNCCc3ccccc3)cc2)cc1)C1CCNCC1 (centres undefined): 10.3
- CCc1c[nH]c2c(N3CCCC3=O)cc(C(=O)N[C@@H](Cc3ccccc3)[C@H](O)CNC3CCCCC3)cc12: 7.8
- Cc1nn(-c2cccc(Cl)c2)c2c1C(C(=O)c1ccc3c(c1)OCO3)CC(=O)N2 (centres undefined): -2.6
- Nc1ncc(-c2ccc(F)cc2)cc1-c1nc2ccc(Cl)cc2[nH]1: 4.48
- CC(C)(C)c1ccc2[nH]c(-c3ccc(C(=O)NC4CCN(Cc5ccccc5)CC4)s3)nc2c1: 3.39
- COc1ccc2ccc(F)c(CC(=O)N3CCOC(CNCc4cccc(-c5ccsc5)n4)C3)c2n1 (centres undefined): 6.96

----------
- Tested System: Glucose transporter (Leishmania mexicana)
- Assay Name: ST_JUDE_LEISH: Cytotoxicity at 2uM final concentration against transgenic Leishmania Mexicana promastigotes LmGT2 that are glucose transport deficient and complemented with the L. Mexicana glucose transporter 2. Activity is measured by DNA content using SYBR green in vitro
- Assay type: functional
Test Readout: inhibition

• CC(=O)N[C@H](C(=O)Nc1cccc(-c2ccc(-c3nc4cccc(C)c4[nH]3)s2)c1)C(C)C = 2.08%
• CC(C)CNC(=O)c1ccnc(-c2ccc(CNCCCc3ccccc3)cc2)c1 = 2.74%
• COc1cc(F)c2ncc(Cl)c(C(O)CN3CCC(NC(=O)c4ccc5c(c4)NC(=O)CS5)CC3)c2c1 (stereo unspecified) = 4.11%
• CCc1ccc(NC(=O)c2cccc(CN3CCCN(Cc4ccc(OC)cc4)CC3)c2)cc1 = 0.16%
• Nc1nc2c(cnn2CCCCCCCP(=O)(O)O)c(=O)[nH]1 = -0.36%
• CCCCCCCc1c(C)nc2ccccc2c1O = 2.82%
• CN1C(C)(C)CC(NC(=O)c2ccc(-c3nc4cc(Cl)ccc4[nH]3)cc2)CC1(C)C = 2.7%
• CCc1cccc(C)c1-n1nc(-c2cc(C(C)(C)C)oc2C)cc1N = 0.33%
• OC(CNc1ccnc(Nc2cccc(Cl)c2)n1)c1ccc(C(F)(F)F)cc1 (stereo unspecified) = 5.22%
• Cc1ccc(C)c2sc(N(CCCn3ccnc3)C(=O)c3ccco3)nc12 = 5.23%
• COc1ccccc1Cc1c(C)nc2nc(N)nc(N)c2c1C = 7.13%
• CCCCn1c(Sc2ccc(C#N)c([N+](=O)[O-])c2)nnc1-c1cccc(Cl)c1 = 5.83%
• O=S(=O)(Nc1cccc(CCN2CCC(N3CCCCC3)CC2)c1)c1ccc(Oc2ccccc2)nc1 = 5.38%
• CCCN1CCC=C(c2cccc(Nc3nccc(Nc4cc(OC)ccc4C)n3)c2)C1 = 10%
• Cc1cccc2nc(-c3ccc(-c4ccc(CNCc5ccccc5)cc4)s3)[nH]c12 = 3.06%
• CN1CCN(c2ccnc3cc4c(cc23)N(C(=O)Nc2ccc(-c3ccncc3)c3ccccc23)CC4)CC1 = 3.35%
• c1ccc(CCNc2nc(NCC(c3ccccc3)c3ccccc3)c3nc[nH]c3n2)cc1 = 1.17%
• CN1CCC(Oc2cc(CN3CC[C@H](NC(=O)c4ccc(Cl)c(Cl)c4)C3)ccc2I)C1 (stereo partly specified) = 2.33%
• Cc1cccc2nc(-c3cccc(-c4cccc(CNCC5CCCO5)c4)c3)[nH]c12 (stereo unspecified) = 1.17%
• Cn1ncc2c3c(CCN4CCC(NCc5cc6c(cn5)OCCO6)CC4)c(Cl)cnc3ccc21 = -0.85%
• CCCNc1nc(NCc2c(C)cccc2C)nc(NC(C)(C)C)n1 = 1.74%
